Target: CCHF virus vOTU protease domain (L polyprotein)
Assay: CCHF virus vOTU protease inhibition, Pep AMC substrate counterscreen, fluorescence, confirmatory IC50 (AID 720577)
Conditions: purified vOTU
Calls of active or inactive are those of the source. How the calls were made is not given here.
Labels: YES (active), NO (inactive)

molecule=COC1=CC(=O)c2c(ccc3ncnc(N)c23)C1=O qualitative_label=YES
molecule=COc1cc(C(=O)c2nccc3cc(OC)c(OC)cc23)c([N+](=O)[O-])cc1OC qualitative_label=YES
molecule=CCOC(=O)c1c(C)[nH]c2c1-c1ccccc1C(=O)C2=O qualitative_label=YES
molecule=O=S(=O)(Nc1cc(Sc2ncn[nH]2)c(O)c2ccccc12)c1ccccc1 qualitative_label=YES
molecule="COCCN1C=C2C(=O)C(C)(OC(=O)C3CCCC3)C(=O)C(c3ccccc3)=C2C=C1CCCC(=O)OC (stereo not given)" qualitative_label=NO
molecule=COC(=O)c1nc(-c2ccc3c(n2)C(=O)C(N)=C(OC)C3=O)c(N)c(-c2ccc(OC)c(OC)c2O)c1C qualitative_label=YES
molecule=CCOC(=O)N=Nc1c2ccccc2c2nc3no[nH]c3nc12 qualitative_label=YES
molecule=CCc1cc[n+](C2=C([O-])c3ccccc3C(=O)/C2=N\S(=O)(=O)c2cccs2)cc1 qualitative_label=NO
molecule=O=C1C(Cl)=C(NCCCO)C(=O)c2ccccc21 qualitative_label=NO
molecule=C[n+]1c(-c2ccccc2)cc2c(=Cc3ccc([N+](=O)[O-])cc3)c3ccccc3n21 qualitative_label=YES
